# maps each entry to its Percent Control
Test system: ERK2;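 also: KINOMEscan scanMAX binding as percent activity remaining versus control; lower means stronger binding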
Construct: gene MAPK1
protocolConditions: Compound Concentration (nM):1000
Numeric answer only, unit % assumed.

{"compound": "O=C1Nc2ccc(C(=O)c3ccco3)cc2C1=Cc1cc(Cl)c(O)c(Cl)c1 [GW406108X]", "Percent Control, %": 94}
{"compound": "COc1cc2ncnc(Nc3ccc4c(cnn4Cc4ccccc4)c3)c2cc1OC.Cl [GW282449A]", "Percent Control, %": 100}
{"compound": "COc1cc(/C=N/Nc2ncnc3[nH]ncc23)ccc1O [GW578748X]", "Percent Control, %": 100}
{"compound": "CCS(=O)(=O)c1ccc(OC)c(Nc2ncc(-c3cccc(F)c3)o2)c1 [GW621970X]", "Percent Control, %": 100}
{"compound": "COc1ccc(COc2ccc(Cc3cnc(N)nc3N)cc2OC)cc1 [GW632580X]", "Percent Control, %": 92}

Give the reported Percent Control for NS(=O)(=O)c1ccc(N/N=C2\C(=O)Nc3ccc(Cl)cc32)cc1 [GW280670X] (system: ERK2).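 Also: KINOMEscan scanMAX binding as percent activity remaining versus control; lower means stronger binding.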
100

Try the compound CN(C)c1cc2c(Nc3ccc4c(cnn4Cc4ccccc4)c3)ncnc2cn1 [GW282974X]
37

Try the compound COc1ccccc1-c1cc(/C=C2\C(=O)Nc3ncc(Br)cc32)cc(Br)c1O [GW442130X]
100

Try the compound CCS(=O)(=O)c1ccc(OC)c(Nc2ncc(-c3cccc(OC)c3)o2)c1 [GW580509X]
100

meta.source: paper PMC7826789
